Tested on: 188146-221-R-J1-PDC complex spheroid viability;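 further: spheroids exposed to compounds for seven days; 100% = DMSO vehicle control viability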
Test: Anticancer human tumor 188146-221-R-J1-PDC patient-derived colon adenocarcinoma cell line growth inhibition [POLQ]
Details: second compound 0.316 µM; first compound 0.0316 µM; active compounds read low
ENDPOINT NAME: viability, T/C (%)
Write the answer as a number in %, unit excluded.

CC1COCCN1c1cc(C2(O)CC3CCC(C2)O3)c2cnn(-c3ccn[nH]3)c2n1 (stereo unspecified) + Nc1ccc(C#CCN(C(=O)Cc2ncc(C(F)(F)F)cc2C(F)(F)F)c2ccc(F)cc2)nn1 | 105
COc1ccc([C@@H](O)c2cc(-c3ncnc4cc(N5CCOCC5)ccc34)c(F)cc2Cl)nn1 + Cc1cccc(N(C)C(=O)C2C(O)CCN2c2nc(C)cc(C(F)(F)F)c2C#N)c1 | 100
CCc1cc2c(N3CCc4c(cc(Cn5ccnc5)cc4-c4cn(C)nc4C(F)(F)F)C3=O)ccnc2c(OC)n1 + Cc1cccc(N(C)C(=O)C2C(O)CCN2c2nc(C)cc(C(F)(F)F)c2C#N)c1 | 107
CC(C)n1c(=O)n(C)c2cnc3cc(F)c(-c4ccc(OCCCN5CCCCC5)nc4)cc3c21 + Nc1ccc(C#CCN(C(=O)Cc2ncc(C(F)(F)F)cc2C(F)(F)F)c2ccc(F)cc2)nn1 | 94.8

Name the reported viability, T/C value associated with the compound Cn1ncnc1[C@H]1c2n[nH]c(=O)c3cc(F)cc(c23)N[C@@H]1c1ccc(F)cc1 + COC1C(OC(N)=O)C(O)C(Oc2ccc3c(O)c(NC(=O)c4ccc(O)c(CC=C(C)C)c4)c(=O)oc3c2C)OC1(C)C
98.8

For CC1COCCN1c1cc(C2(O)CC3CCC(C2)O3)c2cnn(-c3ccn[nH]3)c2n1 (stereo unspecified) + Cc1cccc(N(C)C(=O)C2C(O)CCN2c2nc(C)cc(C(F)(F)F)c2C#N)c1 , what is its reported viability, T/C?
91.9

What measured viability, T/C goes with CC[C@@]1(O)C(=O)OCc2c1cc1n(c2=O)Cc2cc3c(CN(C)C)c(O)ccc3nc2-1 + COC1C(OC(N)=O)C(O)C(Oc2ccc3c(O)c(NC(=O)c4ccc(O)c(CC=C(C)C)c4)c(=O)oc3c2C)OC1(C)C ?
89.2

Given C=CC(=O)N1CCN(c2nc(=O)n(-c3c(C)ccnc3C(C)C)c3nc(-c4c(O)cccc4F)c(F)cc23)C(C)C1 (stereo unspecified) + COC1C(OC(N)=O)C(O)C(Oc2ccc3c(O)c(NC(=O)c4ccc(O)c(CC=C(C)C)c4)c(=O)oc3c2C)OC1(C)C , state its recorded viability, T/C.
110

Consider the compound Cn1ncnc1[C@H]1c2n[nH]c(=O)c3cc(F)cc(c23)N[C@@H]1c1ccc(F)cc1 + Nc1ccc(C#CCN(C(=O)Cc2ncc(C(F)(F)F)cc2C(F)(F)F)c2ccc(F)cc2)nn1 and give its measured viability, T/C.
112

Which viability, T/C value is on record for Nc1ccn(C2OC(CO)C(O)C2(F)F)c(=O)n1 (stereo unspecified) + Cc1cccc(N(C)C(=O)C2C(O)CCN2c2nc(C)cc(C(F)(F)F)c2C#N)c1 ?
31.9

I'd like to know its viability, T/C. The compound in question is O=c1[nH]cc(F)c(=O)[nH]1 + Nc1ccc(C#CCN(C(=O)Cc2ncc(C(F)(F)F)cc2C(F)(F)F)c2ccc(F)cc2)nn1
113
